Quick reference: Plat of the listed items.
- Species: Rattus norvegicus
- protocol.notes: Open TG-GATES - Regimen: Daily Repeat
- Type: toxicity, organism-based, Sprague-Dawley
- Set-up: regimen Daily Repeat, gender Male, age 6 weeks
- conditions.used: in vivo, po, 1000 mg/kg, […], tissue Blood, route gavage, dose level High, time 14 day
Give your result in x10_4/uL as a bare value.

- compound: "O=C(N[C@H](CO)[C@H](O)c1ccc([N+](=O)[O-])cc1)C(Cl)Cl"
  Plat [x10_4/uL]: 116.9
- compound: "CCN1CCCC1CNC(=O)c1cc(S(N)(=O)=O)ccc1OC (centres undefined) [SULPIRIDE]"
  Plat [x10_4/uL]: 114.6
- compound: "CC(C)(S)[C@@H](N)C(=O)O"
  Plat [x10_4/uL]: 164

In the following, a different compound is considered.
Task: Could you share which Plat value was measured for `O=C(O)c1cccnc1` ?
Output: 114.8
